Molecular target: T1, human CD30L expressed on cells (human, UniProt P32971 1-234)
T1 sequence (looked up): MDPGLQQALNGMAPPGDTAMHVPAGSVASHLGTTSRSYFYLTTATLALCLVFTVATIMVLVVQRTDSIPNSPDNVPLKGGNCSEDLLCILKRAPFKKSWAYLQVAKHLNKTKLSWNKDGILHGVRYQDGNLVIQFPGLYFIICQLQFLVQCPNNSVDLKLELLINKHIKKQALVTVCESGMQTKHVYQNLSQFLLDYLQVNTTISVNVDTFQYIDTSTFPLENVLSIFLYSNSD
Assay: cell-based or functional assay
measurement kind: Inhibition of IL-8 release in a dual cell assay (B16-huCD30L cells + K299 cells) IC50 (nM)

INSERT INTO measurements (binder, observed_measurement) VALUES
  ('Clone 2, Human IgG1 (antibody, V domains shown, Human IgG1 format) VH: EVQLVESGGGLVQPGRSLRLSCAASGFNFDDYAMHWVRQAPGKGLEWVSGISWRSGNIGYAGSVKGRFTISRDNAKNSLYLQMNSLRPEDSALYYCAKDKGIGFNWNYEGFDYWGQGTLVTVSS VL: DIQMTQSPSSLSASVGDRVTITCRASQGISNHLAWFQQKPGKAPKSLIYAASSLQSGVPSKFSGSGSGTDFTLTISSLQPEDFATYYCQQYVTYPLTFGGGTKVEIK', 0.6),
  ('Clone 1, Mouse IgG (antibody, V domains shown, Mouse IgG format) VH: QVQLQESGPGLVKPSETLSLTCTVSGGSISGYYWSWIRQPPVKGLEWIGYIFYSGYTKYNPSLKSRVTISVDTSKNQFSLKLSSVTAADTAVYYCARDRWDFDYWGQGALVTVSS VL: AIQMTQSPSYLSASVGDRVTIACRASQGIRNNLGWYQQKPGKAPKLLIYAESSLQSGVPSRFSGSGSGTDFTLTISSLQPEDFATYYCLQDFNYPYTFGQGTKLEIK', 1.99),
  ('Clone 2, Mouse IgG (antibody, V domains shown, Mouse IgG format) VH: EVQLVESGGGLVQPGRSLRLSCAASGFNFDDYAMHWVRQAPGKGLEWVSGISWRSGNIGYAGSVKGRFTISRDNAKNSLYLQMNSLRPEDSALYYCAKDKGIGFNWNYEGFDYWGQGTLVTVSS VL: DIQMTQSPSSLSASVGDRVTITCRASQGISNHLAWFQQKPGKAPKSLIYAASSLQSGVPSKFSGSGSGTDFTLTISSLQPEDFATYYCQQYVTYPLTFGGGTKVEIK', 1.2),
  ('anti-CD30L Reference 1 antibody (antibody, human IgG1, lambda, V domains shown) VH: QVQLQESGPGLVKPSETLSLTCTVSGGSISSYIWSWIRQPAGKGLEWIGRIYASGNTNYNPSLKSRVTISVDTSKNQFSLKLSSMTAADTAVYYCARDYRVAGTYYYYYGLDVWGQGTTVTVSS VL: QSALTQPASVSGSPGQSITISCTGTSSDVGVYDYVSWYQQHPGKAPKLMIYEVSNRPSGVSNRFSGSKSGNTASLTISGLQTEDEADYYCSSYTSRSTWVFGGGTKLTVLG', 1.74);
